TARGET UNDER TEST: Mcl-1 protein (UniProtKB Q07820) (Homo sapiens (Human), UniProt Q07820)
Sequence (Q07820 whole entry): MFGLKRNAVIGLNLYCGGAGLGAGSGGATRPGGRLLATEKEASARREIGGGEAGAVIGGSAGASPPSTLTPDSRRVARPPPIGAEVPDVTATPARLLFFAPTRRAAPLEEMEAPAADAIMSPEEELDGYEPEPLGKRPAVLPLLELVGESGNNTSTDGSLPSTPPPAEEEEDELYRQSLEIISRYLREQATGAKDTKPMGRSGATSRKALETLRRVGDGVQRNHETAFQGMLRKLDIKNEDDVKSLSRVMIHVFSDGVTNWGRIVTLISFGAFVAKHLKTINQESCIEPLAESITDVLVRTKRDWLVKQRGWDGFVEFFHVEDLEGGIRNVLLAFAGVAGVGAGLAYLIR
ASSAY PROTOCOL: Inhibition of Mcl-1 by the fluorescence polarisation assay (Example A, Method A)
TEST SETTINGS: fluorescence polarization assay
This listing pairs molecules with measured pKi.
Please express pKi as -log10 of the molar concentration.

Previously resolved entries follow.
INSERT INTO results (molecule, test_value) VALUES
  ('COc1cccc(Cl)c1C1=Cc2ccccc2[C@]12CC[C@@](Nc1cccc(Cl)c1)(C(=O)O)CC2', 4.86),
  ('Cc1ccc(S(=O)(=O)N2Cc3ccccc3C23CCC(Nc2cccc(Cl)c2)(C(=O)O)CC3)cc1 (single isomer, unassigned) [Example 29]', 4.80);

Below: the item to evaluate.
Which measured pKi belongs to O=C(O)C1(Nc2cccc(Br)c2)CCC2(C=Cc3ccccc32)CC1 (single isomer, unassigned) , tested on Mcl-1 protein (UniProtKB Q07820) (Homo sapiens (Human), UniProt Q07820)?
6.16
